- tgt: Mannose-6-phosphate isomerase (Homo sapiens) (UniProt P34949)
- Sequence (P34949 whole entry, looked up): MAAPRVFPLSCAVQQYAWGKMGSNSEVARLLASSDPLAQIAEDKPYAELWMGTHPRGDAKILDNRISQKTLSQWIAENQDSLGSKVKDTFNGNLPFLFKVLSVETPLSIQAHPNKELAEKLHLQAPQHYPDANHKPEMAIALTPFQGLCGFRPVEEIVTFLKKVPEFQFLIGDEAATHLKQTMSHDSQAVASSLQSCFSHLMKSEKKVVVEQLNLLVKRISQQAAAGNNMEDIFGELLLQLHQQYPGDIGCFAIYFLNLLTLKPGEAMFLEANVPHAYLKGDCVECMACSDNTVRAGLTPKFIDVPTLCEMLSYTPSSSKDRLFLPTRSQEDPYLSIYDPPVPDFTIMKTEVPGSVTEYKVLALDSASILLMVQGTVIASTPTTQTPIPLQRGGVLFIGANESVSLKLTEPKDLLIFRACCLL
- measurement_notes: MPI inhibition at elevated mannose 6-phosphate – biochemical, fluorescence intensity, high mannose 6-phosphate, primary screen (AID 1220)
- assay_conditions: recombinant PMI enzyme, coupled fluorescence intensity; at 20 µM
Out of some 190,000 compounds screened, about 1,300 (0.68%) were called active. No stated cut-off is given here; in the data, active means inhibition above about 50%; inactive means the rest. For the sample, actives were picked, then their nearest neighbours and some compounds at random.
Form entry, call: pick from 1 for active, 0 for inactive

Recorded results for 3 compounds are shown here.
{"compound": "CC(NCc1ccccc1Cl)C(O)c1ccccc1 (configuration not stated)", "cat": 0}
{"compound": "CCN(CC)c1ccc(N=Cc2c(O)n(-c3ccccc3C)c(=O)[nH]c2=O)cc1", "cat": 0}
{"compound": "CCOc1cc(C2C(C#N)=C(N)Oc3c2c(=O)oc2ccccc32)ccc1OC(=O)c1cccs1 (configuration not stated)", "cat": 0}

Task: Which outcome was assigned to Oc1ccccc1/C=N/NP(=S)(c1ccccc1)c1ccccc1 in this test?
Output: 0

Task: Which outcome was assigned to O=C(Cn1cnc2sc3c(c2c1=O)CCCC3)NCCC(=O)N1CCC2(CC1)OCCO2 in this test?
Output: 0

Task: Which outcome was assigned to Oc1ccc(/C=N/NP(=S)(c2ccccc2)c2ccccc2)cc1 in this test?
Output: 0

Task: Which outcome was assigned to COc1ccc(P2(=O)Nc3ccccc3N2)cc1 in this test?
Output: 1

Task: Which outcome was assigned to CCOc1ccccc1-n1c(O)c(C=Nc2ccc(N(CC)CC)cc2)c(=O)[nH]c1=O in this test?
Output: 1

meta.source: PubChem BioAssay AID1220
